Each recorded value in this set is attributed to PubChem BioAssay AID1963828.

# Tested on: 991263-137-R1-J2-PDC complex spheroid viability
# Protocol details: Anticancer human tumor 991263-137-R1-J2-PDC patient-derived colon adenocarcinoma cell line growth inhibition [POLQ]
# Experimental setup: second compound 0.1 µM; first compound 0.316 µM; stronger effect = lower value
Readout type: viability, T/C (%)
State just the number; it will be interpreted in %.

For reference, reported viability, T/C for CCCS(=O)(=O)Nc1ccc(F)c(C(=O)c2c[nH]c3ncc(-c4ccc(Cl)cc4)cc23)c1F + Cc1cccc(N(C)C(=O)C2C(O)CCN2c2nc(C)cc(C(F)(F)F)c2C#N)c1 stands at 105

For reference, reported viability, T/C for CC1COCCN1c1cc(C2(O)CC3CCC(C2)O3)c2cnn(-c3ccn[nH]3)c2n1 (stereo unspecified) + Nc1ccc(C#CCN(C(=O)Cc2ncc(C(F)(F)F)cc2C(F)(F)F)c2ccc(F)cc2)nn1 stands at 80.2

For reference, reported viability, T/C for CCc1cc2c(N3CCc4c(cc(Cn5ccnc5)cc4-c4cn(C)nc4C(F)(F)F)C3=O)ccnc2c(OC)n1 + Nc1ccc(C#CCN(C(=O)Cc2ncc(C(F)(F)F)cc2C(F)(F)F)c2ccc(F)cc2)nn1 stands at 108

* * *

# Tested on: 991263-137-R1-J2-PDC complex spheroid viability
# Protocol details: Anticancer human tumor 991263-137-R1-J2-PDC cell line growth inhibition [POLQ];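 note: spheroids exposed to compounds for 7 days before readout; 100% = DMSO vehicle control viability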
# Experimental setup: second compound 10 µM; first compound 0.1 µM; stronger effect = lower value
Readout type: viability, T/C (%)
State just the number; it will be interpreted in %.

>  <Compound>
CCc1cc2c(N3CCc4c(cc(Cn5ccnc5)cc4-c4cn(C)nc4C(F)(F)F)C3=O)cc(C)nc2c(OC)n1 + COC1C(OC(N)=O)C(O)C(Oc2ccc3c(O)c(NC(=O)c4ccc(O)c(CC=C(C)C)c4)c(=O)oc3c2C)OC1(C)C

>  <viability, T/C (%)>
104

$$$$

Would you kindly look at the next entry?
For reference, reported viability, T/C for C#Cc1c(F)ccc2cc(O)cc(-c3ncc4c(N5CC6CCC(C5)N6)nc(OCC56CCCN5CC(F)C6)nc4c3F)c12 (stereo not given) + COC1C(OC(N)=O)C(O)C(Oc2ccc3c(O)c(NC(=O)c4ccc(O)c(CC=C(C)C)c4)c(=O)oc3c2C)OC1(C)C stands at 102

* * *

# Tested on: 991263-137-R1-J2-PDC complex spheroid viability
# Protocol details: Anticancer human tumor 991263-137-R1-J2-PDC cell line growth inhibition [POLQ];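 note: spheroids exposed to compounds for 7 days before readout; 100% = DMSO vehicle control viability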
# Experimental setup: second compound 0.1 µM; first compound 3.16 µM; stronger effect = lower value
Readout type: viability, T/C

>  <Molecule>
C#Cc1c(F)ccc2cc(O)cc(-c3ncc4c(N5CC6CCC(C5)N6)nc(OCC56CCCN5CC(F)C6)nc4c3F)c12 (stereo not given) + Nc1ccc(C#CCN(C(=O)Cc2ncc(C(F)(F)F)cc2C(F)(F)F)c2ccc(F)cc2)nn1

>  <viability, T/C>
103%

$$$$

Would you kindly look at the next entry?
For reference, reported viability, T/C for COc1cc(C2c3cc4c(cc3C(OC3OC5COC(C)OC5C(O)C3O)C3COC(=O)C23)OCO4)cc(OC)c1O (stereo not given) + Nc1ccc(C#CCN(C(=O)Cc2ncc(C(F)(F)F)cc2C(F)(F)F)c2ccc(F)cc2)nn1 stands at 91%
